TESTED_SYSTEM: pre-pro-human insulin

PROTEIN	Activity PPI cleavage
trypsin variant SEQ ID NO: 78 (protein) IVGGYTCAANSIPYQVSLNSGSHRCGGSLINSQWVVSAAHCYKSRIQVRLGEHNIHVLEGNEQFINAAKIITHPNFNPNTLDNDIMLIKLSSPATLNSHVATVSLPTSCAAAGTECLISGWGNTCSSGSSYPSLLQCLKAPVLSDSSCKSSYPGQITGNMICVGFLEGGKDACQGDSGGPVVCNGQLQGIVSSGYGCAQKNKPGVYTKVCNYVNWIQQTIAAN	yes
trypsin variant SEQ ID NO: 57 (protein) IVGGYTCAANSIPYQVSLNSGSHRCGGSLINSQWVVSAAHCYKSRIQVRLGEHNIHVLEGNEQFINAAKIITHPNFNGNTLDNDIMLIKLSSPATLNSRVATVSLPRSCAAAGTECLISGWGNTKSSGSSYPSLLQCLKAPVLSDSSCKSSYPGQITGNMICVGFLEGGKDACQGDSGGPVVCNGQLQGIVSSGYGCAQKNKPGVYTKVCNYVNWIQQTIAAN	yes
trypsin variant SEQ ID NO: 5 (protein) IVGGYTCAANSIPYQVSLNSGSHRCGGSLINSQWVVSAAHCYKSRIQVRLGEHNIDVLEGNEQFINAAKIITHPNFNGNTLDNDIMLIKLSSPATLNSLVATVSLPRSCAAAGTECLISGWGNTKSSGSSYPSLLQCLKAPVLSDSSCKSSYPGQITGNMICVGFLEGGKDACQGDSGGPVVCNGQLQGIVSSGYGCAQKNKPGVYTKVCNYVNWIQQTIAAN	yes
trypsin variant SEQ ID NO: 126 (protein) IVGGYTCAANSIPYQVSLNSGSHECGGSLINSQWVVSAAHCYKSRIQVRLGEHNIDVLEGNEQFINAAKIITHPNFNGNTLDNDIMLIKLSSPATLNSRVATVSLPRSCAAAGTECLISGWGNTKSSGSSYPSLLQCLKAPVLSDSSCKSSYPGQITGNMICVGFLEGGKDACQGDSGGPVVCNGQLQGIVSSGYGCAQKNKPGVYTKVCNYVNWIQQTIAAN	yes
trypsin variant SEQ ID NO: 110 (protein) IVGGYTCAANSIPYQVSLNSGSHRCGGSLINSQWVVSAAHCYKSRIQVRLGEHNIHVLEGNEQFINAAKIITHPNFNPNTLDNDIMLIKLSSPATLNSHVATVSLPRSCAAAGTECLISGWGNTCSSGSSMPSLLQCLKAPVLSDSSCKSSYPGQITGNMICVGFLEGGADACQGDSGGPVVCNGQLQGIVSSGYGCAQKNKPGVYTKVCNYVNWIQQTIAAN	yes

Cited source for all entries: patent US20230303994
